B1: Far upstream element-binding protein 1, residues 98 to 169; numbered along this chain, Q96AE4 (parent)
chain: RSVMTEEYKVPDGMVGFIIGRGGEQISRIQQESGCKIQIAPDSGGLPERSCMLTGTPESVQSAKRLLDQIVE

# Variants of: B1
# protocolDetails: abundance fitness (aPCA) (normalised: wild type 0, dead -1); higher = more abundant; growth selection in yeast, the domain comes from the species named
# conditionParameters: Homo sapiens
Record form. Attribute: abundance fitness. Fill in for each entry.

Here is how some variants turned out for abundance fitness.
T54V = -0.05
T54Y = -0.046
E72H = -0.007

Parameters: items (list). Returns: abundance fitness for each item.
1. F17I
2. E58C
3. R1S
4. G55T
5. T5H
6. C51Q
7. P47F
8. R21H

OUTPUT:
-0.041
-0.17
-0.113
-1.32
-0.055
-0.818
-0.084
-0.118
